Provenance of the data: patent US20100137313A1

MEASURED_TARGET: S. pneumoniae Topoisomerase IV ATPase (ParE) (Streptococcus pneumoniae serotype 4)
MEASUREMENT_PROTOCOL: S. pneumoniae Topoisomerase IV ATPase inhibition
Type: biochemical
CONDITION_DETAILS: values marked * are an average of two or more data points, read-out: % Inh (13 μM) of S. pneumoniae Topoisomerase IV ATPase
RECORDED_METRIC: inhibition at 13 µM (%)
Please respond with the number in % and leave the unit unwritten.

Worked examples, 6 compounds total:
| COMPOUND | inhibition at 13 µM, % |
| --- | --- |
| CCS(=O)(=O)NC(=O)c1cc(-c2cnc(Nc3cc(OC)cc(OC)c3)nc2-n2nc(C(F)(F)F)cc2C)cnc1OC [Example 815] | 100 |
| CCOC(=O)c1cc2cc(-c3cnc(Nc4ccc(F)c(Cl)c4)nc3NCCCOC)ccc2[nH]1 [Example 1052] | 0 |
| COc1ccccc1-c1cnc(Nc2ccc(F)c(Cl)c2)nc1NCCCN(C)C [Example 28] | 62.6 |
| O=C(O)c1cncc(-c2cnc(Nc3ccc(F)c(Cl)c3)nc2-n2cc(-c3ccncn3)cn2)c1 [Example 536] | 100 |
| O=C(O)c1cc(-c2cnc(Nc3ccc(F)c(Cl)c3)nc2-n2ccc(C(F)(F)F)n2)cn(CCO)c1=O [Example 1083] | 99 |
| COc1cc(Nc2ncc(-c3cncc(C(=O)O)c3)c(-n3ccc(C(F)(F)F)n3)n2)cc(OC)c1 [Example 635] | 100 |

Record CCOC(=O)c1cncc(-c2cnc(Nc3ccc(F)c(Cl)c3)nc2NCCCN2CCCC2=O)c1 [Example 91] , field inhibition at 13 µM: 83.1

Lab note: Fc1ccc(Nc2ncc(-c3cncnc3)c(NCCOc3ccccc3)n2)cc1Cl [Example 55] gave inhibition at 13 µM of 44.4

Looking up COc1ncc(-c2cnc(Nc3cccc(Cl)c3)nc2-n2ccc(C(F)(F)F)n2)cc1C(=O)O [Example 742] , I found its inhibition at 13 µM recorded as 100

For record CCOC(=O)c1cncc(-c2cnc(Nc3ccc(F)c(Cl)c3)nc2N2CCN(C(C)=O)CC2)c1 [Example 142] the listed inhibition at 13 µM is 86.2

// field: inhibition at 13 µM; key: CCOC(=O)c1cncc(-c2cnc(Nc3ccc(F)c(Cl)c3)nc2NCCOC(C)C)c1 [Example 109] ; value = 52.4

###

MEASURED_TARGET: UniProt:Q59961
MEASUREMENT_PROTOCOL: S. pneumoniae Topoisomerase IV ATPase inhibition
Assay type: biochemical
CONDITION_DETAILS: values marked * are an average of two or more data points, read-out: % Inh (13 μM) of S. pneumoniae Topoisomerase IV ATPase
RECORDED_METRIC: inhibition at 13 µM (%)
Answer format: numeric, % implied, no suffix.

Below, each entry is followed by its recorded inhibition at 13 µM result.
| COMPOUND | inhibition at 13 µM, % |
| --- | --- |
| Cc1ccc(Nc2ncc(-c3cccc(/C=C/C(=O)O)c3)c(NCCCN(C)C)n2)cc1C#N | 58.4 |
| CCOC(=O)c1sc(-c2cnc(Nc3ccc(F)c(Cl)c3)nc2NCCCOC)nc1-c1ccccc1 | 33 |
| CCOC(=O)CNc1nc(Nc2ccc(F)c(Cl)c2)ncc1-c1cncc(C(=O)OCC)c1 | -13.9 |
| OC1CCN(c2nc(Nc3ccc(F)c(Cl)c3)ncc2-c2cncnc2)C1 (centres unmarked) | 62.1 |
| O=C(O)c1cncc(-c2cnc(Nc3ccc(F)c(Cl)c3)nc2NCCc2nc3ccccc3[nH]2)c1 | 88 |

The recorded inhibition at 13 µM for entry NCCCNc1nc(Nc2ccc(F)c(Cl)c2)ncc1-c1cncnc1 equals 76.6

Query O=C(O)/C=C/c1cccc(-c2cnc(Nc3ccc(F)c(Cl)c3)nc2-n2nccn2)c1 yields inhibition at 13 µM of 76.9

For record CN(C)CCCNc1nc(Nc2ccc(F)c(Cl)c2)ncc1-c1ccc(C(=O)O)s1 the listed inhibition at 13 µM is 54.8

###

MEASURED_TARGET: S. pneumoniae Topoisomerase IV ATPase (ParE) (Streptococcus pneumoniae serotype 4, UniProt Q59961)
Sequence (Q59961 whole entry): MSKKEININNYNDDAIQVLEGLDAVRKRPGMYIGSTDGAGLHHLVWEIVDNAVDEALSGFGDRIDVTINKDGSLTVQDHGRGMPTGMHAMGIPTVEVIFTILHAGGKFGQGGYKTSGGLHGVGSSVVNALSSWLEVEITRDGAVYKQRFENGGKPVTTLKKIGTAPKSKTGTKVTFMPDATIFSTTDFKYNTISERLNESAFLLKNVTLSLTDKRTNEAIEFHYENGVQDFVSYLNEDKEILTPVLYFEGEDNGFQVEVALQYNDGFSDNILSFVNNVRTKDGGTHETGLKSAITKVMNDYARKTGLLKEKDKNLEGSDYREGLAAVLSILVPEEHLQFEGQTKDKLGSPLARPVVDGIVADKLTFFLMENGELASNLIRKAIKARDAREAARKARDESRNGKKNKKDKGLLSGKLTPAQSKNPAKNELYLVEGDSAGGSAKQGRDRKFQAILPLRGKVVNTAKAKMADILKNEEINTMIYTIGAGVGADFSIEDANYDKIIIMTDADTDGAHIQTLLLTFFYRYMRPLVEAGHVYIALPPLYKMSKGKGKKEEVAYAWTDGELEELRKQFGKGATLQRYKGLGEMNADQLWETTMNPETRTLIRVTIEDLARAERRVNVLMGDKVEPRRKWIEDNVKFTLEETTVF
MEASUREMENT_PROTOCOL: S. pneumoniae Topoisomerase IV ATPase inhibition
Type: biochemical
CONDITION_DETAILS: values marked * are an average of two or more data points, read-out: % Inh (13 μM) of S. pneumoniae Topoisomerase IV ATPase
RECORDED_METRIC: inhibition at 13 µM (%)
Write the number in % without appending the unit.

Some entries whose results are on file:
| ENTRY_SMILES | inhibition at 13 µM [%] |
| --- | --- |
| O=C(O)/C=C/c1cccc(-c2cnc(Nc3ccc(F)c(Cl)c3)nc2N[C@H]2CCOC2)c1 | 100 |
| CN(C)CCCNc1nc(Nc2ccc(F)c(Cl)c2)ncc1-c1cnc(N)nc1 | 95.8 |
| CN1CCN(CCOc2ncc(-c3cnc(Nc4ccc(F)c(Cl)c4)nc3-n3ccc(C(F)(F)F)n3)cc2C(=O)O)CC1 | 98 |
| CONC(=O)c1cncc(-c2cnc(Nc3ccc(F)c(Cl)c3)nc2-n2nc(C(F)(F)F)cc2C)c1 | 100 |

# inhibition at 13 µM of Cc1cc(C(F)(F)F)nn1-c1nc(Nc2ccc(F)c(Cl)c2)ncc1-c1cncnc1 = 86.6

Documented inhibition at 13 µM of O=C(O)c1ccc(-c2cnc(Nc3ccc(F)c(Cl)c3)nc2N2CCOCC2)s1 : 89

For record COCCCNc1nc(Nc2ccc(F)c(Cl)c2)ncc1-c1nc(-c2cccnc2)cs1 the listed inhibition at 13 µM is 34

// sample CN(C)CCCNc1nc(Nc2ccc(F)c(Cl)c2)ncc1-c1ccc(C(=O)N(C)C)s1 , its inhibition at 13 µM was 80.5

// NC(=O)c1cc(-c2cnc(Nc3ccc(F)c(Cl)c3)nc2-n2ccc(C(F)(F)F)n2)ccn1 : inhibition at 13 µM value = 100

So, O=C(O)/C=C/c1cccc(-c2cnc(Nc3ccc(F)c(Cl)c3)nc2N2CCCC2)c1 ? Its inhibition at 13 µM was 73.2

Query COCC(COC)Nc1nc(Nc2ccc(F)c(Cl)c2)ncc1-c1cncc(C(=O)O)c1 yields inhibition at 13 µM of 89.9

Documented inhibition at 13 µM of COc1cc(Nc2ncc(-c3cc(C(=O)NS(C)(=O)=O)c(=O)n(C)c3)c(-n3nc(C(F)(F)F)cc3C)n2)cc(OC)c1 : 98

Entry CN(C)CCCNc1nc(Nc2ccc(F)c(Cl)c2)ncc1-c1ccc(C(=O)N2CCCC(F)(F)C2)s1 — recorded inhibition at 13 µM = 129

Entry O=C(O)COc1ccc(-c2cnc(Nc3ccc(F)c(Cl)c3)nc2N2CCOCC2)cc1 — recorded inhibition at 13 µM = 97

compound CC1(C)[C@@H](C(=O)O)[C@@H]1c1cccc(-c2cnc(Nc3ccc(F)cc3)nc2-n2ccc(C(F)(F)F)n2)c1 , inhibition at 13 µM observed: 17

inhibition at 13 µM reading for O=C(O)/C=C/c1cccc(-c2cnc(Nc3ccc(F)c(Cl)c3)nc2N2CCOCC2)c1 : 80.5

GET /value?item= O=C(O)c1cncc(-c2cnc(Nc3ccc(F)c(Cl)c3)nc2NCCCc2nc3ccccc3[nH]2)c1 &field=inhibition at 13 µM returns 86.6

Lab note: O=C(O)CNc1nc(Nc2ccc(F)c(Cl)c2)ncc1-c1cncc(C(=O)O)c1 gave inhibition at 13 µM of 72.6

###

MEASURED_TARGET: S. pneumoniae Topoisomerase IV ATPase (ParE) (Streptococcus pneumoniae serotype 4, UniProt Q59961)
MEASUREMENT_PROTOCOL: S. pneumoniae Topoisomerase IV ATPase inhibition
Format: biochemical
CONDITION_DETAILS: values marked * are an average of two or more data points, read-out: % Inh (13 μM) of S. pneumoniae Topoisomerase IV ATPase
RECORDED_METRIC: inhibition at 13 µM (%)
Provide the reading as a plain figure in %.

| ENTRY_SMILES | VALUE_UNITS | inhibition at 13 µM |
| --- | --- | --- |
| NC(=O)c1cccc(-c2cnc(Nc3ccc(F)c(Cl)c3)nc2-n2ccc(C(F)(F)F)n2)c1 | % | 100 |

// sample CN(C)CCCNc1nc(Nc2cc(C(F)(F)F)cc(C(F)(F)F)c2)ncc1-c1ccc(C(=O)O)s1 , its inhibition at 13 µM was 87.2

Per the records, this molecule ( CONC(=O)c1cncc(-c2cnc(Nc3cc(OC)cc(OC)c3)nc2-n2nc(C(F)(F)F)cc2C)c1 ) has inhibition at 13 µM equal to 100

Quick note, inhibition at 13 µM for O=C(O)/C=C/c1cccc(-c2cnc(Nc3ccc(F)cc3)nc2N2CCOCC2)c1 landed at 50

Note to self: inhibition at 13 µM recorded for COCCCNc1nc(Nc2ccc(F)c(Cl)c2)ncc1-c1ccc2c(c1)c(=O)c(C(=O)O)cn2CCOC was 55.8

molecule COCCn1cc(-c2cnc(Nc3ccc(F)c(Cl)c3)nc2-n2nc(C(F)(F)F)cc2C)cc(C(=O)O)c1=O , inhibition at 13 µM observed: 100

inhibition at 13 µM reading for O=C(O)/C=C/c1cccc(-c2cnc(Nc3cc(F)cc(F)c3)nc2-n2ccc(C(F)(F)F)n2)c1 : 100

Reported inhibition at 13 µM of CCNC(=O)NS(=O)(=O)c1cccc(-c2cnc(Nc3ccc(F)c(Cl)c3)nc2-n2ccc(C(F)(F)F)n2)c1 : 100

For reference, reported inhibition at 13 µM for Cc1cc(-c2nccs2)nn1-c1nc(Nc2ccc(F)c(Cl)c2)ncc1-c1cncc(C(N)=O)c1 stands at 100

inhibition at 13 µM in this record for Cc1cc(C(F)(F)F)nn1-c1nc(Nc2cc(Cl)cc(C#N)c2)ncc1-c1cncc(C(=O)O)c1 : 100

According to the records, this molecule CCOC(=O)c1cncc(-c2cnc(Nc3ccc(F)c(Cl)c3)nc2N2CCC(NC(C)=O)CC2)c1 displays inhibition at 13 µM of 74.9

Reported inhibition at 13 µM ( Cc1cc(C(F)(F)F)nn1-c1nc(Nc2ccc(F)c(Cl)c2)ncc1-c1ccc(C(=O)O)s1 ) = 100

Sample Cn1cc(-c2cnc(Nc3ccc(F)c(Cl)c3)nc2-n2ccc(C(F)(F)F)n2)cc(C(=O)NS(C)(=O)=O)c1=O ; inhibition at 13 µM observed: 100

Just so you know, measured inhibition at 13 µM for O=C(O)c1cncc(-c2cnc(Nc3ccc(F)cc3)nc2N2CCOCC2)c1 came out at 51

The reported value for C[C@@H](Nc1nc(Nc2ccc(F)c(Cl)c2)ncc1-c1cncc(C(=O)O)c1)C(=O)O in terms of inhibition at 13 µM is 45.8
